These data points were gathered from PubChem BioAssay (NCI).

System: SK-MEL-5 melanoma
Experiment: NCI-60 one-dose screen, 48 h
Settings: 10 µM unless noted
This is part of a sample that, as a whole, favours compounds with a hit. Of some 83,000 tested, about 20% had one in any assay. Activity calls are given as the source filed them. Rule for the calls: active = growth percent below 10; inactive = the rest.
Assign a class; possible classes are 1 (yes) (active), 0 (no) (inactive)

// known answers, use as guide
• NS(=O)(=O)c1ccc(N2N=C(c3ccc(NC(=O)Nc4ccccc4)cc3)CC2c2ccc(Br)cc2)cc1 (stereo unspecified) = 1 (yes)
• Cc1ccc(C(C(=O)NC2CCCCC2)N(Cc2ccccc2Cl)C(=O)c2ccc(CN3CCOCC3)o2)o1 (stereo unspecified) = 0 (no)
• Nc1nn2c(-c3cc4cc(Br)ccc4oc3=O)ccnc2c1N=Nc1ccc(Br)cc1 = 0 (no)
• CN(CCSSCCN1CCOCC1)C(=O)Oc1cc2c(c3ccccc13)[C@H](CCl)CN2C(=O)c1cc2cc(OCCCN3CCC3)ccc2[nH]1 = 1 (yes)
• FC(F)(F)c1cc2c(Cl)ncnc2n1CCN1CCOCC1 = 0 (no)
• COc1ccc(SC2c3cc(OC)ccc3Oc3nc(N)c(C#N)c(N)c32)cc1 (stereo unspecified) = 0 (no)

[Q] I would be grateful if you could indicate the recorded call for "COC(=O)c1cc(C(=O)C(C)(C)C)n2c3ccccc3c3ccccc3c12" .
[A] 0 (no)
